Listing of recorded log10 IC50 by entry.
- study system: Sphingosine 1-phosphate receptor 3 (Homo sapiens, UniProt Q99500)
- Sequence (Q99500 whole entry): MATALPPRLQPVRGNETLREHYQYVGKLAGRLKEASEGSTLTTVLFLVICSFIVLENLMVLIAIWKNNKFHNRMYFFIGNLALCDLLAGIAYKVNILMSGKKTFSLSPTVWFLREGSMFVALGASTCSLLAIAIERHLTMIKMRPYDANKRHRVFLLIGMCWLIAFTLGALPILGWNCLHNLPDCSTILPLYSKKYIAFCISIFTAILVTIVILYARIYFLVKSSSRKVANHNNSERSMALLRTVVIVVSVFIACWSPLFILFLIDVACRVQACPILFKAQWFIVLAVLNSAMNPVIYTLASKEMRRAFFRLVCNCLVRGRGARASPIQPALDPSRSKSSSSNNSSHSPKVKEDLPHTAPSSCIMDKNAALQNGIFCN
- test: Displacement of [33P]S1P from human S1P3 receptor expressed in CHO cells
All values: base-10 log of IC50 in nM.

[
  {
    "compound": "O=C(O)CC1CNC(c2ccc(OCc3cc(-c4ccccc4)c(C(F)(F)F)s3)cc2)C1 (stereo not given)",
    "log10 IC50": 3.32
  }
]

Then there is this compound:
Would you mind telling me what log10 IC50 value was observed for O=C(O)C[C@@H]1CN[C@@H](c2ccc(-c3noc(-c4ccc([C@@H]5CCC(F)(F)C5)cc4)n3)cc2)C1 (stereo in doubt; 22g) ?
3.04

----------
- study system: Sphingosine 1-phosphate receptor 5 (Homo sapiens, UniProt Q9H228)
- Sequence (Q9H228 whole entry): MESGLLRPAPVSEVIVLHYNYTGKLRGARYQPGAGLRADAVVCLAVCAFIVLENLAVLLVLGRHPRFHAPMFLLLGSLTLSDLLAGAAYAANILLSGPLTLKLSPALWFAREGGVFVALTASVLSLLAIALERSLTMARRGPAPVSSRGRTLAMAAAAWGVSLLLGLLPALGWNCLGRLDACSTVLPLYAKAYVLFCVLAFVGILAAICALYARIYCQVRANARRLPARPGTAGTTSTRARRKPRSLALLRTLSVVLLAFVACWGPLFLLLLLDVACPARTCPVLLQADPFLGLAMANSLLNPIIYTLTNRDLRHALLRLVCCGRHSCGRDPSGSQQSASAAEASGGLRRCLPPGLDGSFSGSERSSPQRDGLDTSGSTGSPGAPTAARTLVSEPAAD
- test: Displacement of [33P]S1P from human S1P5 receptor expressed in CHO cells
readout kind: pIC50
Formally, pIC50 is defined as -log10 of the concentration c, with c in mol/L.

[
  {
    "compound": "CC(C)Cc1ccc(-c2nc(-c3ccc([C@H]4C[C@H](CC(=O)O)CN4)cc3)no2)cc1 (relative stereo)",
    "pIC50": 6.52
  },
  {
    "compound": "O=C(O)C[C@@H]1CN[C@@H](c2ccc(-c3noc(-c4ccc([C@@H]5CCC(F)(F)C5)cc4)n3)cc2)C1 (stereo in doubt; 22f)",
    "pIC50": 8.29
  }
]

Would you mind telling me what pIC50 value was observed for O=C(O)C[C@@H]1CN[C@@H](c2ccc(-c3noc(-c4ccc(C5CCCC5)cc4)n3)cc2)C1 (relative stereo) ?
7.17

Would you mind telling me what pIC50 value was observed for O=C(O)C1CNC(c2ccc(OCc3cc(-c4ccccc4)c(C(F)(F)F)s3)cc2)C1 (stereo not given) ?
6.89

Would you mind telling me what pIC50 value was observed for O=C(O)C[C@@H]1CN[C@@H](c2ccc(-c3noc(-c4ccc([C@@H]5CCC(F)(F)C5)cc4)n3)cc2)C1 (stereo in doubt; 22g) ?
7.96

----------
- study system: Sphingosine 1-phosphate receptor 1 (Homo sapiens)
- Sequence (P21453 whole entry): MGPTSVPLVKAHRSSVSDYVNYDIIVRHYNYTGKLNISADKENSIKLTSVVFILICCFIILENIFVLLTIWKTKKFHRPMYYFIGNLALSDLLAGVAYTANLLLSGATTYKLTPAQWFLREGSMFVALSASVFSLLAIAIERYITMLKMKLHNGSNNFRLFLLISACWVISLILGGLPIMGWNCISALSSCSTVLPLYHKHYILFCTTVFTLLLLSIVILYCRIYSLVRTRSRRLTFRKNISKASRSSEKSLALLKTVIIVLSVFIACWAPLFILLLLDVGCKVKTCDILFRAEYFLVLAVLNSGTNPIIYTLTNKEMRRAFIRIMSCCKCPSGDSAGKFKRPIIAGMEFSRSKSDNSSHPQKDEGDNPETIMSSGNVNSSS
- test: Displacement of [33P]S1P from human S1P1 receptor expressed in CHO cells
readout kind: pIC50
Formally, pIC50 is defined as -log10 of the concentration c, with c in mol/L.

As a guide, the following entries are already answered.
[
  {
    "molecule": "O=C(O)C[C@@H]1CN[C@@H](c2ccc(-c3noc(-c4ccc(C5CCC(F)(F)CC5)cc4)n3)cc2)C1 (relative stereo)",
    "readout kind": "pIC50",
    "value measured": 8.70
  },
  {
    "molecule": "O=C(O)C[C@@H]1CN[C@@H](c2ccc(-c3noc(-c4ccc([C@@H]5CCC(F)(F)C5)cc4)n3)cc2)C1 (stereo in doubt; 22g)",
    "readout kind": "pIC50",
    "value measured": 9.10
  },
  {
    "molecule": "O=C(O)C[C@@H]1CN[C@@H](c2ccc(-c3noc(-c4ccc(CCC(F)(F)F)cc4)n3)cc2)C1 (relative stereo)",
    "readout kind": "pIC50",
    "value measured": 8.26
  },
  {
    "molecule": "O=C(O)C[C@@H]1CN[C@@H](c2ccc(-c3noc(-c4ccc([C@@H]5CCC(F)(F)C5)cc4)n3)cc2)C1 (stereo in doubt; 22f)",
    "readout kind": "pIC50",
    "value measured": 8.92
  },
  {
    "molecule": "CC(C)Cc1ccc(-c2nc(-c3ccc([C@H]4C[C@@H](CC(=O)O)CN4)cc3)no2)cc1 (relative stereo)",
    "readout kind": "pIC50",
    "value measured": 8.10
  }
]

Would you mind telling me what pIC50 value was observed for O=C(O)C[C@@H]1CN[C@@H](c2ccc(-c3noc(-c4ccc(C5CCCCC5)cc4)n3)cc2)C1 (relative stereo) ?
8.85

meta.source: ChEMBL document CHEMBL1138904
